Values compiled from ChEMBL document CHEMBL3988442.

# target_system: Tyrosyl-tRNA synthetase, putative (Trypanosoma cruzi (strain CL Brener))
# procedure_summary: Trypanosoma cruzi tyrosyl tRNA synthetase (TcYRS) SOP
# Type: functional
# Design: scale not given: direction of the effect not stated beside the values
# details: 30 µM
Documented Percent Effect across a set of compounds
Report the value in % with no unit label.

Here's what some known entries look like.
| compound | unit_label | Percent Effect |
| --- | --- | --- |
| Cc1cc(C(=O)N2CCCC2c2nnc3n2CCCCC3)no1 (configuration not stated) | % | 12.8 |
| O=C(c1cccc(F)c1)N1CCOC(c2nc(-c3ncccn3)no2)C1 (configuration not stated) | % | 6.41 |
| CC(C1CC1)N(C(=O)NCCCn1nc2ccccn2c1=O)C1CC1 (configuration not stated) | % | 15 |
| Cc1nnc([C@@H]2CC[C@@H]3[C@@H](CCN3S(=O)(=O)c3cccnc3)O2)o1 | % | 12.8 |
| CC(NCc1ccc(Cl)o1)c1nnc2n1CCCC2 (configuration not stated) | % | 18.3 |

Prompt: Fill blank: measured Percent Effect of the compound "Cc1ccc(C(=O)N2CCN(CCCSCC#N)CC2)o1" is ____.
Response: 11.1

Prompt: Fill blank: measured Percent Effect of the compound CC(CCN1CCn2nc(CNC(=O)N(C)C)cc2C1)c1ccccc1 (configuration not stated) is ____.
Response: 19.5

Prompt: Fill blank: measured Percent Effect of the compound "CC(=O)N1CCN(c2cc(-c3ccccc3)nc3c(C)c(C)nn23)CC1" is ____.
Response: 8.64

Prompt: Fill blank: measured Percent Effect of the compound CC(C(=O)NCc1cccc(N2CC=CC2)c1)n1cccn1 (configuration not stated) is ____.
Response: -2.44

###

# target_system: Arginase-2, mitochondrial (Homo sapiens) (UniProt P78540)
# Sequence (P78540 whole entry): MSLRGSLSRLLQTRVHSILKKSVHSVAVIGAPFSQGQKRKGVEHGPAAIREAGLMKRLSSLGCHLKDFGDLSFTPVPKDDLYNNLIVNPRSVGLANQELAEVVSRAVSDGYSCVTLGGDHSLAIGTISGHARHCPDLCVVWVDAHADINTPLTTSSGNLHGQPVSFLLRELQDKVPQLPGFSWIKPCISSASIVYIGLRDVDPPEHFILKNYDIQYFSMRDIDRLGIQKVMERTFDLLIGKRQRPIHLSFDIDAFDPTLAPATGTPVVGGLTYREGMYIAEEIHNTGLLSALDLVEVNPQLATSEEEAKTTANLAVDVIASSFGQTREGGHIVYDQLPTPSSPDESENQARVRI
# procedure_summary: in vitro enzyme assay to detect the production of urea directly proportional to the activity of Arginase II; note: in the data most compounds retested in dose-response had high values
# Type: functional
# Parameters: scale not given: direction of the effect not stated beside the values
# details: 33.3 µM
Documented Percent Effect across a set of molecules
Report the value in % with no unit label.

Here's what some known entries look like.
| molecule | target_system | unit_label | Percent Effect |
| --- | --- | --- | --- |
| O=C(C1=CCCC1)N1CCO[C@H]2[C@@H](Oc3ccccn3)CC[C@@H]21 | Arginase-2, mitochondrial (Homo sapiens) (UniProt P78540) | % | 3.96 |
| CN(Cc1nccn1CC(F)(F)F)C(=O)c1ccc(F)c(F)c1 | Arginase-2, mitochondrial (Homo sapiens) (UniProt P78540) | % | 0 |
| c1cnnc(N2CCCC2CNCc2cc[nH]n2)c1 (stereo unspecified) | Arginase-2, mitochondrial (Homo sapiens) (UniProt P78540) | % | 3.45 |
| Cc1ccc(N2CCCC(NCc3ccncc3)C2)nn1 (stereo unspecified) | Arginase-2, mitochondrial (Homo sapiens) (UniProt P78540) | % | -3.23 |
| CS(=O)(=O)N1Cc2nccn2CC(Cn2ncccc2=O)C1 (stereo unspecified) | Arginase-2, mitochondrial (Homo sapiens) (UniProt P78540) | % | -26 |

Prompt: Fill blank: measured Percent Effect of the molecule "O=C(CCc1ccccn1)N1CCc2cc(Cl)cc(Cl)c2C1" is ____.
Response: -17.9

Prompt: Fill blank: measured Percent Effect of the molecule "CCN(Cc1cccc(Cl)c1)Cn1nc(C)c2c(C)onc2c1=O" is ____.
Response: -0.802

Prompt: Fill blank: measured Percent Effect of the molecule CNC(=O)c1ccc(C2CN(C(=O)c3cncs3)CCO2)nc1 (stereo unspecified) is ____.
Response: -1.62

Prompt: Fill blank: measured Percent Effect of the molecule "COCCNC(=O)c1sc(Nc2ccc(Cl)cn2)nc1C" is ____.
Response: -3.7

Prompt: Fill blank: measured Percent Effect of the molecule "Cc1ncc(C(=O)N2C[C@H]3CC[C@@H]2CN(S(=O)(=O)N(C)C)C3)c(C)n1" is ____.
Response: 27.6

Prompt: Fill blank: measured Percent Effect of the molecule C[S+]([O-])c1nncn1CC(=O)c1cccc(Cl)c1 (stereo unspecified) is ____.
Response: 3.72
